B1: HDV Ribozyme (parent)
chain: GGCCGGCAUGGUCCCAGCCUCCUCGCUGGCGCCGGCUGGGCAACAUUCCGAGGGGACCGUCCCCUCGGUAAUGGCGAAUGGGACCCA

# Variants of: B1
# test_details: self-cleavage, relative activity (ratio to wild type); higher = more cleavage; co-transcriptional
measured_attribute: self-cleavage

> print(dat)
    mutation.list  measured.attribute  value.reported
 1      C14U U27G       self-cleavage            1.11
 2      C58G C75A       self-cleavage           0.196
 3      G76A A78U       self-cleavage           0.673
 4      G34U C48A       self-cleavage           0.251
 5      G73U G81A       self-cleavage           0.178
 6       G2U C49U       self-cleavage          0.0821
 7      U20C U47C       self-cleavage           0.262
 8      C44A U47G       self-cleavage           0.906
 9      C21G C22G       self-cleavage               0
10      A56C A77U       self-cleavage           0.437
